src = patent US12061201B2

# TARGET_OR_SYSTEM: UniProt:Q8E183
# Sequence (Q8E183 1-426): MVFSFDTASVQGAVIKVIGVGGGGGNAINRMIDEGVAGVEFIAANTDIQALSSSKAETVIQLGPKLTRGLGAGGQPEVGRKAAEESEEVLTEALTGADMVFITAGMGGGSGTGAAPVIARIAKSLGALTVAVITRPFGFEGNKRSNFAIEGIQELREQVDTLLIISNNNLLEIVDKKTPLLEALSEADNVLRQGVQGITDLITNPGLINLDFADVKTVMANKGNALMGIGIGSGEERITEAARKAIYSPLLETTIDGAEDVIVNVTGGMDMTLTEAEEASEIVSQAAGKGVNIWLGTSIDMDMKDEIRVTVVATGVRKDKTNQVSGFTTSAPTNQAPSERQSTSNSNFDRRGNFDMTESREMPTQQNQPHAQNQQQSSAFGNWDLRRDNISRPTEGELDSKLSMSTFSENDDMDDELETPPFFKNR
# PROTOCOL_DESCRIPTION: Fluorescence anisotropy binding of BOFP to FtsZ
# CONDITIONS: 15° C., 50 mM Tris-HCl (pH 7.6), 50 mM KCl, read-out: Kd −15° C.
MEASURED_ATTRIBUTE: Kd (nM)
Could you give me the number in nM? Just the number is fine.

Exercise: Value lookup for Kd; key = CC1=CC(C)=[N+]2C1=Cc1ccc(CCC(=O)OCC(Oc3ccc(F)c(C(N)=O)c3F)c3nc(-c4ccc(C(F)(F)F)cc4)c(Br)o3)n1[B-]2(F)F (stereo not shown)
Key: 620
